- Test system: A498 complex spheroid viability
- TEST_DETAILS: Anticancer human tumor A498 cell line growth inhibition;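 note: spheroids exposed to agents for seven days before readout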
- RECORDED_CONDITIONS: curve of first compound; second compound 1 µM
pIC50: −log10 of the molar value.
ATTRIBUTE_MEASURED: pIC50

// below: answered compounds
CC(C)c1c(-c2ccccc2)nc2c(C#N)c[nH]n2c1=O + NC1CCC(NC2CC2c2ccccc2)CC1	< 5.00
Cn1ncnc1C1c2n[nH]c(=O)c3cc(F)cc(c23)NC1c1ccc(F)cc1 (stereo unspecified) + NC1CC1c1ccc(-c2cccc(O)c2)cc1	< 7.00

Request: Give pIC50 for the following compound: CCc1c2c(nc3ccc(O)cc13)-c1cc3c(c(=O)n1C2)COC(=O)[C@]3(O)CC + NC1CC1c1ccc(-c2cccc(O)c2)cc1
Result: > 9.02

Request: # return recorded pIC50 for entry O=C(c1cc(Cc2n[nH]c(=O)c3ccccc23)ccc1F)N1CCN(C(=O)C2CC2)CC1 + NC1CC1c1ccc(-c2cccc(O)c2)cc1
Result: < 5.00

Request: Recall and state the measured pIC50 for NS(=O)(=O)OCC1CC(n2ccc3c(NC4CCc5ccccc54)ncnc32)CC1O (stereo unspecified) + NC1CCC(NC2CC2c2ccccc2)CC1 .
Result: > 8.02

Request: Tell me measured pIC50 for Nc1ncn(C2CC(O)C(CO)O2)c(=O)n1 (stereo unspecified) + NC1CC1c1ccc(-c2cccc(O)c2)cc1 please.
Result: < 6.00
